Each recorded value in this set is attributed to patent US6653307B2.

ATTRIBUTE_MEASURED: melting point

                               query_smiles  attribute_measured         result
0  O=C(NCc1ccc(Cl)cc1)c1cn(-c2cccc(CO)c2)c2ccc(CN3CCOCC3)cc2c1=O       melting point  119 to 121 °C
1  O=C(NCc1ccc(F)cc1)c1cn(-c2ccc3[nH]ccc3c2)c2ccc(CN3CCOCC3)cc2c1=O       melting point  223 to 225 °C
2  COc1cccc(-n2cc(C(=O)NCc3ccc(Cl)cc3)c(=O)c3cc(CN4CCOCC4)ccc32)c1       melting point  110 to 113 °C
3  O=C(NCc1ccc(Cl)cc1)c1cn(-c2ccc(Cl)cc2)c2ccc(CN3CCOCC3)cc2c1=O       melting point  189 to 191 °C
4  O=C(NCc1ccc(F)cc1)c1cn(-c2cccc(CCO)c2)c2ccc(CN3CCOCC3)cc2c1=O       melting point  128 to 132 °C
5  O=C(NCc1ccc(Cl)cc1)c1cn(-c2ccc3[nH]ccc3c2)c2ccc(CN3CCOCC3)cc2c1=O       melting point  241 to 243 °C
6  O=C(NCc1ccc(Cl)cc1)c1cn(-c2cccc(C#CCCCO)c2)c2ccc(CN3CCOCC3)cc2c1=O       melting point  125 to 128 °C

====

ATTRIBUTE_MEASURED: melting point

>>> df
                               query_smiles  attribute_measured         result
0  O=C(NCc1ccc(Cl)cc1)c1cn(-c2cccc(CCCCO)c2)c2ccc(CN3CCOCC3)cc2c1=O       melting point  119 to 121 °C
1  O=C(NCc1ccc(Cl)cc1)c1cn(-c2cccc(CCCCCO)c2)c2ccc(CN3CCOCC3)cc2c1=O       melting point  142 to 144 °C
2  O=C(NCc1ccc(Cl)cc1)c1cn(-c2ccccc2)c2ccc(CN3CCOCC3)cc2c1=O       melting point  168 to 169 °C
3  O=C(NCc1ccc(Cl)cc1)c1cn(-c2ccccc2CO)c2ccc(CN3CCOCC3)cc2c1=O       melting point  162 to 163 °C

====

Examples of compounds with documented IC50 follow.
ASSAYED_SYSTEM: HCMV polymerase (Human cytomegalovirus, UniProt P08546)
Construct: made in house; host or cells: recombinant baculovirus-infected SF-9 cells
Sequence (P08546 whole entry): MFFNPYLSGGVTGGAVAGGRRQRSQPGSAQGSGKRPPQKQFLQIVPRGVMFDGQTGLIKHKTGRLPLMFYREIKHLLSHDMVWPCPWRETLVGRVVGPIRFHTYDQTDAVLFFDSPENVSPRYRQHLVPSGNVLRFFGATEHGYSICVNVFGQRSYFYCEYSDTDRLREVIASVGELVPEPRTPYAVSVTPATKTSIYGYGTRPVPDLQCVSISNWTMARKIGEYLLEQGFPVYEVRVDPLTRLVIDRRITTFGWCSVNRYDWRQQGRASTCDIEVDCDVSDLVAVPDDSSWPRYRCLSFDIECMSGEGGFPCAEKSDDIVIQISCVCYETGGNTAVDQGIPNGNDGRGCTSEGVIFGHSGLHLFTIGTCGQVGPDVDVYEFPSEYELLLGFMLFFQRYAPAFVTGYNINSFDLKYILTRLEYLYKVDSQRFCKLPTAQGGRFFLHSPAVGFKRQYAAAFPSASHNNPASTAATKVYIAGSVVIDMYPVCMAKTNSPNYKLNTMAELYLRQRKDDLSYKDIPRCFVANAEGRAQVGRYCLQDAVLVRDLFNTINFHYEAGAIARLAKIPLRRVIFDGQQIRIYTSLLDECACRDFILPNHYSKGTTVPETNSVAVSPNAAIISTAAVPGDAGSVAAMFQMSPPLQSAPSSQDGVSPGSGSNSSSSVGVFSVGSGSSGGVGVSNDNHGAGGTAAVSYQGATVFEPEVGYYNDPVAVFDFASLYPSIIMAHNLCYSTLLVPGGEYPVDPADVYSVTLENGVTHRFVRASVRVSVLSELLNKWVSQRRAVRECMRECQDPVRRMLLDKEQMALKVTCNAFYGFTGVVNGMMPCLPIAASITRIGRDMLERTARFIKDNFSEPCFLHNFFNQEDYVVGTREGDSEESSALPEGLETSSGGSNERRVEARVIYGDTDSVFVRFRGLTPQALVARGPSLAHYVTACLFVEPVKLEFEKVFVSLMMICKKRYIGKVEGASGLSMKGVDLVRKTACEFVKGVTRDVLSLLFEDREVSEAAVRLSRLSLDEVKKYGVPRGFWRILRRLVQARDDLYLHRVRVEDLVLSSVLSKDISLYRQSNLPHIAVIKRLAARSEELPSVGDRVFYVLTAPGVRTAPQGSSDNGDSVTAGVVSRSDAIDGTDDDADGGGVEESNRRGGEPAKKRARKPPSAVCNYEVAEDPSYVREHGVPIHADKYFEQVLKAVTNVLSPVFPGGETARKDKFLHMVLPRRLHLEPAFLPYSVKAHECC
MEASUREMENT_NOTES: HCMV polymerase scintillation proximity assay (SPA)
Type: biochemical
PARTICULARS: 3H-dTTP incorporation
ATTRIBUTE_MEASURED: IC50 (µM)

In [3]: df
Out[3]:
                                    compound  attribute_measured  numeric_value
 0  O=C(NCc1ccc(Cl)cc1)c1cn(-c2cccc(CCCCCO)c2)c2ccc(CN3CCOCC3)cc2c1=O [Example 23]                IC50           0.76
 1  O=C(NCc1ccc(Cl)cc1)c1cn(-c2ccc3[nH]ccc3c2)c2ccc(CN3CCOCC3)cc2c1=O [Example 11]                IC50           1.18
 2  O=C(NCc1ccc(Cl)cc1)c1cn(-c2ccc(Cl)cc2)c2ccc(CN3CCOCC3)cc2c1=O [Example 4]                IC50            1.1
 3  Cc1ccccc1-n1cc(C(=O)NCc2ccc(Cl)cc2)c(=O)c2cc(CN3CCOCC3)ccc21 [Example 2]                IC50              3
 4  O=C(NCc1ccc(Cl)cc1)c1cn(-c2ccccc2CO)c2ccc(CN3CCOCC3)cc2c1=O [Example 8]                IC50           1.47
 5  O=C(NCc1ccc(Cl)cc1)c1cn(-c2cccc(C#CCO)c2)c2ccc(CN3CCOCC3)cc2c1=O [Example 20]                IC50           0.57
 6  O=C(NCc1ccc(Cl)cc1)c1cn(-c2cccc(CCCO)c2)c2ccc(CN3CCOCC3)cc2c1=O [Example 25]                IC50           1.08
 7  COc1cccc(-n2cc(C(=O)NCc3ccc(Cl)cc3)c(=O)c3cc(CN4CCOCC4)ccc32)c1 [Example 16]                IC50            1.9
 8  O=C(NCc1ccc(F)cc1)c1cn(-c2ccc(Cl)cc2)c2ccc(CN3CCOCC3)cc2c1=O [Example 7]                IC50              2
 9  O=C(NCc1ccc(F)cc1)c1cn(-c2ccc3[nH]ccc3c2)c2ccc(CN3CCOCC3)cc2c1=O [Example 12]                IC50            2.2
10  O=C(NCc1ccc(Cl)cc1)c1cn(-c2cccc(CCO)c2)c2ccc(CN3CCOCC3)cc2c1=O [Example 14]                IC50           0.82
11  O=C(NCc1ccc(Cl)cc1)c1cn(-c2ccc3c(c2)CCC3)c2ccc(CN3CCOCC3)cc2c1=O [Example 9]                IC50           1.32
12  O=C(NCc1ccc(Cl)cc1)c1cn(-c2cccc(I)c2)c2ccc(CN3CCOCC3)cc2c1=O [Example 3]                IC50            2.1
13  O=C(NCc1ccc(Cl)cc1)c1cn(-c2ccccc2)c2ccc(CN3CCOCC3)cc2c1=O [Example 1]                IC50           0.81
14  COc1ccc(-n2cc(C(=O)NCc3ccc(Cl)cc3)c(=O)c3cc(CN4CCOCC4)ccc32)cc1 [Example 6]                IC50            1.1
15  CC(C)c1ccc(-n2cc(C(=O)NCc3ccc(Cl)cc3)c(=O)c3cc(CN4CCOCC4)ccc32)cc1 [Example 5]                IC50              4
